Cited source for all entries: ChEMBL document CHEMBL1201862

- Test system: SK-OV-3
- ASSAY OVERVIEW: NCI tumour cell line growth inhibition, 48 h
The source made the active and inactive calls. Rule as the data show it: active = GI50 up to about 1.1 µM and inactive = higher.
Outcomes you can answer with include only these: yes (1) (active), no (0) (inactive)

**Q:** What is the recorded call for this compound in the test? O=C(Nc1ccc(Br)cc1)C(=O)C(C(=O)c1ccccc1F)C1OC(=O)c2ccccc21 (centres undefined)
**A:** no (0)

**Q:** Try this compound next: COc1ccc(NCc2cc(OC)c(OC)c(OC)c2)cc1
**A:** yes (1)

**Q:** Cool, now O=[N+]([O-])c1cccc(-c2csc(N/N=C3\NC/C(=C/c4ccc5c(c4)OCO5)S3)n2)c1
**A:** no (0)

**Q:** And the next one, Cc1ccc2nc3ccccc3c(C3C4C(=O)N(c5ccc(Br)cc5Cl)C(=O)C4ON3C(C(N)=O)c3ccccc3)c2c1 (centres undefined) ?
**A:** no (0)

**Q:** Repeat with COCc1cc2c(cc1/C=C/[N+](=O)[O-])OCO2
**A:** no (0)

**Q:** Could you do the same for COc1ccc(N(C)Sc2ccccc2)cc1 , please?
**A:** no (0)

**Q:** Ok, now Cc1cc2c(cc1O)[nH]c1cc3c(cc12)C=CC(C)(C)O3
**A:** no (0)

**Q:** Please do the same for O=C(O)[C@@H](NS(=O)(=O)c1ccc2ccccc2c1)c1ccccc1 as well.
**A:** no (0)

**Q:** Let us now turn to C#CCn1c(=O)ccn(/C(=C\C(=O)OCC)C(=O)OCC)c1=O
**A:** no (0)

**Q:** Item: Cc1cc([N+](=O)[O-])c(S(=O)(=O)c2ccccc2)c([N+](=O)[O-])c1
**A:** no (0)

**Q:** Please do the same for COC(=O)c1ccc(C)cc1CC1Cc2ccc(C)cc2C1=O (centres undefined) as well.
**A:** no (0)

**Q:** Next entry: COc1ccc(/C=C/c2nsc(/C=C/c3ccc(OC)cc3)n2)cc1
**A:** no (0)

**Q:** Would you mind doing CC1(C)/C(=N\Nc2ccc([N+](=O)[O-])cc2[N+](=O)[O-])C2CCC1C2 (centres undefined) as well?
**A:** no (0)

**Q:** Another compound to check: CCc1cccc(C(C)(C)C)c1NC(=S)N/C=C(/C#N)C(N)=O
**A:** no (0)

---

- Test system: XF498
- ASSAY OVERVIEW: NCI tumour cell line growth inhibition, 48 h
Active and inactive are the calls of the source. No stated cut-off is given here; in the data, active = GI50 up to about 1.1 µM and inactive = higher.
Your answer must be one of the following: class 1 for active, class 0 for inactive

**Q:** Query: recorded result category for COC(=O)C(CCC#N)(CCC#N)C(=O)OC in this test
**A:** class 0

**Q:** Similarly, COc1cc(CCCOC2OC(COC3OCC(O)C(O)C3O)C(O)C(O)C2O)cc2cc(-c3ccc4c(c3)OCO4)oc12 (centres undefined) ?
**A:** class 0

**Q:** Let us now turn to C[C@@H]1[C@@H]2[C@@H](C=C3C4CCC5Cc6nc7c(nc6C[C@@]5(C)C4C[C@H](O)[C@]32CO)CC2CCC3C4=C[C@H]5O[C@@]6(OC(C)(CO)C[C@@H]6O)[C@H](C)[C@@]5(O)[C@]4(C)[C@@H](O)CC3[C@]2(C)C7)O[C@]12CCC(C)(C)O2 (some centres undefined)
**A:** class 1

**Q:** Also COc1cc(Nc2cnc3cc(N)ccc3n2)cc(OC)c1OC ?
**A:** class 0

---

- Test system: OVCAR-8
- ASSAY OVERVIEW: NCI tumour cell line growth inhibition, 48 h
Active and inactive are the calls of the source. Rule as the data show it: active = GI50 up to about 1.1 µM and inactive = higher.
Pick from active, inactive when you respond.

**Q:** Hi, sorry to bother you, what did the test record for C[C@@H]1[C@@H]2[C@@H](C=C3C4CCC5Cc6nc7c(nc6C[C@@]5(C)C4C[C@H](O)[C@]32CO)CC2CCC3C4=C[C@H]5O[C@@]6(OC(C)(CO)C[C@@H]6O)[C@H](C)[C@@]5(O)[C@]4(C)[C@@H](O)CC3[C@]2(C)C7)O[C@]12CCC(C)(C)O2 (stereo partly drawn) ?
**A:** active

**Q:** Can you handle CN(C)/C=N\c1nncc2[nH]nnc12 next?
**A:** inactive

**Q:** What do you have for Cc1ccc(S(=O)(=O)N2CCNCCN(S(=O)(=O)c3ccc(C)cc3)CCNCC2)cc1 ?
**A:** inactive

**Q:** Lookup NC1=C(NC(=O)Cc2ccccc2F)C(=O)c2ccccc2C1=O
**A:** inactive

**Q:** Continue with O=C1CC(c2cccc(Cl)c2)n2cccc21 (stereo not drawn)
**A:** inactive

**Q:** Please give the result for O=C(O)CSc1nnc(-c2ccco2)[nH]1 too.
**A:** inactive

**Q:** Same read-out for Cc1cc(C)cc(Sc2c([N+](=O)[O-])ncn2C)c1 ?
**A:** inactive

**Q:** Same lookup for CN1C2CCC1CC(=CCOC(c1ccc(F)cc1)c1ccc(F)cc1)C2 , please.
**A:** inactive

**Q:** // same read-out, input: N#CC(c1ccccc1)N(CCc1ccccc1)C(=O)c1ccc(C(=O)N(CCc2ccccc2)C(C#N)c2ccccc2)cc1 (stereo not drawn)
**A:** inactive

**Q:** Please do the same for CN(C)NC1=C([N+](=O)[O-])C=NN(c2ccccc2)C1 as well.
**A:** inactive

**Q:** Same question, C=CCc1cccc(/C=N\N/C(N)=N/O)c1O this time
**A:** inactive

**Q:** Try CN(C)CCNC(=O)c1cccc2c1Oc1c(cccc1[N+](=O)[O-])O2 next.
**A:** inactive

**Q:** Same read-out for CC(=O)OC1(C(C)=O)CC2(c3ccccc3)OC1(c1ccccc1)c1ccccc12 (stereo not drawn) ?
**A:** inactive

---

- Tested on: OVCAR-3
- ASSAY OVERVIEW: NCI tumour cell line growth inhibition, 48 h
Calls of active or inactive are those of the source. Cut-off read from the data, not from the text of the source: active = GI50 up to about 1.1 µM and inactive = higher.
REPORTED ENDPOINT: GI50

**Q:** Look up GI50: Cn1c(NC(=O)NC23CC4CC(CC(C4)C2)C3)nc2ccccc21
**A:** > 100 µM (inactive)

**Q:** Record: COc1ccccc1NC(=O)C1=C(C)NC(C)=C(C(=O)Nc2ccccc2OC)C1c1ccccc1[N+](=O)[O-]
**A:** 18.5 µM (inactive)

**Q:** Follow-up item: C=C1C2CCC3C4(C)CCCC(C)(C(=O)O)C4CCC3(C2)C1OC(=O)/C(C)=C/C (stereo not drawn)
**A:** 19.8 µM (inactive)

---

- System: CAKI-1
- ASSAY OVERVIEW: NCI tumour cell line growth inhibition, 48 h
Activity calls are given as the source filed them. Cut-off read from the data, not from the text of the source: active = GI50 up to about 1.1 µM and inactive = higher.
REPORTED ENDPOINT: GI50

**Q:** Quick one: GI50 for Nc1nc(SCCc2ccccc2)c2nc[nH]c2n1 ?
**A:** 61.9 µM (inactive)

**Q:** // next record Cc1ccc(/N=N/NCCCCN)cc1
**A:** > 100 µM (inactive)

**Q:** Quick one: OC1c2ccccc2[C@@H]2[C@H]1[C@@H](c1ccccc1)C1(Cc3ccccc3C1O)[C@H]2c1ccccc1 (some centres undefined)
**A:** 8.09 µM (inactive)

**Q:** Then this compound: COc1ccc(/C=C/C(=O)c2sc(-n3nc(-c4ccccc4)cc3-c3ccccc3)nc2C)cc1
**A:** 55.2 µM (inactive)

---

- System: NCI-H522
- ASSAY OVERVIEW: NCI tumour cell line growth inhibition, 48 h
Activity calls are given as the source filed them. No stated cut-off is given here; in the data, active = GI50 up to about 1.1 µM and inactive = higher.
Give GI50 for every item shown.

**Q:** Enter reported GI50 observed with NCI-H522 for OCCCNc1ccnc2cc(Cl)ccc12
**A:** > 100 µM (inactive)

**Q:** // repeat for c1cnn(CN(Cn2cccn2)Cn2cccn2)c1 and report
**A:** > 100 µM (inactive)

**Q:** Now the compound COC(=O)C(=O)C(C(=O)C=C(C)C)C(=O)C(=O)Nc1nc2ccc([N+](=O)[O-])cc2s1 (centres undefined)
**A:** 23.7 µM (inactive)

**Q:** Quick one: CCn1c2ccccc2c2cc(NC(=O)c3c(C)nc(O)nc3NCCNCCO)ccc21
**A:** > 100 µM (inactive)

---

- Tested on: NCI-H460
- ASSAY OVERVIEW: NCI tumour cell line growth inhibition, 48 h
The source made the active and inactive calls. Rule as the data show it: active = GI50 up to about 1.1 µM and inactive = higher.
API: response.call in class 1 for active, class 0 for inactive

**Q:** What did the test return for Cc1ccc2oc3c(ccc(=O)n3C)c(=O)c2c1 ?
**A:** class 0

**Q:** Cool, now CC(C)(C)C1CC[C@H]2c3c([nH]c4ccccc34)[C@H]3C(=O)N(c4ccc(F)cc4)C(=O)[C@H]3[C@H]2C1 (stereo partly specified)
**A:** class 0

**Q:** Then CN[C@@H](Cc1cccc2ccccc12)C(=O)N[C@@H](CC(C)C)B(O)O ?
**A:** class 1

**Q:** Another compound: CC(C)(C)[Si](C)(C)OCC1OC(n2cnc3c(N)ncnc32)CC1OS(C)(=O)=O (stereo unspecified)
**A:** class 0

**Q:** One more compound: Cc1c(C#N)c(N)n(C2OC(CO)C(O)C(O)C2O)c(=S)c1C#N (stereo unspecified)
**A:** class 0

**Q:** Another compound to check: CN(C)/C=N\c1nncc2[nH]nnc12
**A:** class 0
